Origin of values: PubChem BioAssay (NCI)

I'd appreciate it if you could supply TGI values for the items below.
# System: ACHN renal
# MEASUREMENT DESCRIPTION: NCI tumour cell line growth inhibition, 48 h

COMPOUND: CCOC(=O)Nc1ccc2c(c1)N(C(=O)CCN(CC)CC)c1ccccc1S2
TGI: > 95.5 µM
--
COMPOUND: CCCn1c(=O)c2nn3c(=O)n(CCC)c(=O)c3nn2c1=O
TGI: > 100 µM
--
COMPOUND: O=c1c(O)cc2c(O)oc3c(=O)c(O)c(O)c4c(O)oc1c2c43
TGI: > 100 µM

Answer for every listed entry: what is its TGI? The entries follow.
1. CCC1c2cc3n(c(=O)c2COC1O)Cc1c-3nc2ccccc2c1Cl (stereo not given)
2. Cc1c(-c2nc(N)c(C#N)c(N)c2C#N)c(=O)oc2ccccc12

## Output
1. > 84 µM
2. > 100 µM

###

# System: MDA-N
# MEASUREMENT DESCRIPTION: NCI tumour cell line growth inhibition, 48 h
I'd appreciate it if you could supply TGI values for the items below.

Completed entries (count: 5):
COMPOUND: O=C1CCN2C(=N1)Sc1ccccc12
TGI: > 100 µM

COMPOUND: CCCCCCCc1cscc1-c1cscc1Br
TGI: > 100 µM

COMPOUND: CC1(C)SCc2nc3ccccc3n21
TGI: > 100 µM

COMPOUND: C=C(CCC/C(C)=C/C=C/[C@H](C)CCCc1ccoc1)C[C@@H]1OC(=O)[C@H](C)[C@@H]1O
TGI: 20.5 µM

COMPOUND: Nc1nc(Br)nc2ncn(C3CC(O)C(CO)O3)c12 (stereo not drawn)
TGI: > 100 µM

Answer for every listed entry: what is its TGI? The entries follow.
1. O=C1C=CC(=O)N1c1ccc(I)cc1
2. C=C1CC(C)(COc2cc(=O)oc3ccccc23)OC1=O (stereo not drawn)
3. O=C1Nc2ccccc2/C1=C\c1c(-c2ccccc2)nc2n1CCS2
4. C1=C(c2ccccc2)O[C@H](COCc2ccccc2)C(OCc2ccccc2)[C@@H]1OCc1ccccc1 (stereo partly drawn)
5. COc1ccc(NS(=O)c2c(C)cc(C)cc2C)cc1 (stereo not drawn)

## Output
["30.1 µM", "16.3 µM", "65 µM", "> 10 µM", "> 100 µM"]

Answer for every listed entry: what is its TGI? The entries follow.
1. Cn1nc(-c2ccccc2)c2c(-c3ccccc3)c3cc(Cl)ccc3nc21
2. NC(Cc1ccccc1)c1nn[nH]n1 (stereo not drawn)
3. CCCCCCCCCCCCCCCC(=O)Nc1ccn(C2CCC(COP(=O)(O)OCC3OC(n4cc(F)c(=O)[nH]c4=O)CC3OC(C)=O)O2)c(=O)n1 (stereo not drawn)
4. CCCCOC(=O)NC(Nc1ccc(S(=O)(=O)Nc2ncccn2)cc1)(C(F)(F)F)C(F)(F)F
5. O=C(O)c1ccc(C(=O)O)c(C(=O)O)c1.[NH-]C1CCCCC1[NH-].[Pt+2]
6. CSC1=C(C#N)C(=O)N(c2ccc(C)cc2)C(=O)C1C#N (stereo not drawn)
7. CCCCCCCC(CC(=O)NC(CO)C(=O)NC(CO)CC(C)C)OC(=O)CC(CCCCCCC)OC(=O)CC(CCCCCCC)OC1OC(C)C(O)C(OC2OC(C)C(O)C(O)C2O)C1O (stereo not drawn)

## Output
> 100 µM
> 100 µM
50.4 µM
> 100 µM
24.7 µM
> 100 µM
20.5 µM

Answer for every listed entry: what is its TGI? The entries follow.
1. CCN(CC)C(=S)N/N=C/c1cc(OC)ccc1O
2. COC(=O)CC(CNC(=O)OCc1ccccc1)OCc1ccc(OC)cc1 (stereo not drawn)
3. O=C1CCSc2nc(-c3ccc4c(c3)OCO4)nn21
4. O=[N+]([O-])/C=C/c1cc2ccc3ccccc3c2[nH]1
5. CC1CCC2CC1NC(=O)CCOCCC(=O)NC2(C)C (stereo not drawn)
6. Cc1ccc(SCC(CF)OC(C)n2cnc3c(Cl)nc(N)nc32)cc1 (stereo not drawn)

## Output
1. > 100 µM
2. > 100 µM
3. > 10 µM
4. 4.79 µM
5. > 100 µM
6. > 100 µM

###

# Tested on: CAKI-1 renal
# MEASUREMENT DESCRIPTION: NCI tumour cell line growth inhibition, 48 h
MEASURE: TGI

Completed entries (count: 3):
COMPOUND: Cc1c(-c2nc(N)c(C#N)c(N)c2C#N)c(=O)oc2ccccc12
TARGET OF ASSAY: CAKI-1 renal
TGI: > 100 µM
//
COMPOUND: Fc1ccc(C2SCc3nc4ccccc4n32)cc1F (centres undefined)
TARGET OF ASSAY: CAKI-1 renal
TGI: > 100 µM
//
COMPOUND: NC(=S)N/N=C(\CCC(=O)Nc1ccccc1[N+](=O)[O-])CC(=O)c1ccco1
TARGET OF ASSAY: CAKI-1 renal
TGI: > 100 µM

Answer for every listed entry: what is its TGI? The entries follow.
1. Cc1cnc2c(c1)C(=O)N(c1ccc([N+](=O)[O-])cc1)S2(=O)=O
2. NC(=N\N=C/c1ccc(Cl)cc1Cl)/C(N)=N\N=C/c1ccc(Cl)cc1Cl
3. CC(=O)OCC1OC([Se-])C(OC(C)=O)C(OC(C)=O)C1OC(C)=O.N#CCC[PH+](CCC#N)CCC#N.[Au+] (centres undefined)
4. c1ccc2cc(CNCCCCNCCCNCc3ccc4ccccc4c3)ccc2c1
5. C=C(CCC/C(C)=C/C=C/[C@H](C)CCCc1ccoc1)C[C@@H]1OC(=O)[C@H](C)[C@@H]1O

## Output
1. > 100 µM
2. > 100 µM
3. 55.6 µM
4. 3.31 µM
5. 19.2 µM

Answer for every listed entry: what is its TGI? The entries follow.
1. CCCn1c(=O)c2nn3c(=O)n(CCC)c(=O)c3nn2c1=O
2. CCOC(=O)Nc1ccc2c(c1)N(C(=O)CCN(CC)CC)c1ccccc1S2

## Output
1. > 100 µM
2. 30.6 µM

###

I'd appreciate it if you could supply TGI values for the items below.
# Test system: HOP-62 NSCLC
# MEASUREMENT DESCRIPTION: NCI tumour cell line growth inhibition, 48 h

Completed entries (count: 4):
COMPOUND: Cn1nc(-c2ccccc2)c2c(-c3ccccc3)c3cc(Cl)ccc3nc21
ENDPOINT RESULT: > 100 µM

COMPOUND: O=C(O)C1=CN(c2ccncc2)C(c2ccco2)=CC1c1ccccc1[N+](=O)[O-] (stereo unspecified)
ENDPOINT RESULT: 32.9 µM

COMPOUND: CC(C)(Oc1ccc2c(=O)cc(-c3ccccc3)oc2c1)C(=O)N1CCN(c2ccccc2)CC1
ENDPOINT RESULT: > 10 µM

COMPOUND: CCC1c2cc3n(c(=O)c2COC1O)Cc1c-3nc2ccccc2c1Cl (stereo unspecified)
ENDPOINT RESULT: > 100 µM

Answer for every listed entry: what is its TGI? The entries follow.
1. C/C(=N\O)C1CC2C=C(C#N)C1N(Cc1ccccc1)C2 (stereo unspecified)
2. C=C(CN1CCN(c2ccccc2C(F)(F)F)CC1)c1ccc(C(=O)Nc2ccccc2N)cc1
3. c1ccc(-c2cc(-c3ccncc3)cc(-c3ccncc3)n2)cc1
4. c1ccc2cc(CNCCCCNCCCNCc3ccc4ccccc4c3)ccc2c1
5. C(=N\NC1=NCCN1)/c1cccc2cc3ccncc3nc12
6. CC(Cc1cccc2c1Nc1ccccc1S2)N(C)CCO (stereo unspecified)
7. CCCOc1ccc(/C=N/Nc2cc(C)nc3ccc(Cl)cc23)cc1

## Output
["> 100 µM", "> 44.4 µM", "> 100 µM", "3.31 µM", "19.7 µM", "> 100 µM", "2.98 µM"]

Answer for every listed entry: what is its TGI? The entries follow.
1. O=C(Cc1ccccc1)NN1C(=O)C(Cl)C1c1cccc([N+](=O)[O-])c1 (stereo unspecified)
2. CC(=O)Oc1c(Br)ccc2cc(C(Br)Br)c(C(=O)c3ccccc3)nc12
3. O=P(CCOc1ccccc1OCCP(=O)(c1ccccc1)c1ccc2c(c1)OCCOCCOCCOCCO2)(c1ccccc1)c1ccc2c(c1)OCCOCCOCCOCCO2 (stereo unspecified)
4. NC1=NC2=C(CCCC2)C(c2cccs2)S1 (stereo unspecified)
5. CCCn1c(=O)c2nn3c(=O)n(CCC)c(=O)c3nn2c1=O
6. CCOC(=O)C1(C#N)C(C#N)(C#N)C1(C#N)C#N
7. CCC(c1ccc(OC)cc1)C1NC(=S)NC1=O (stereo unspecified)
8. Cc1ccc(C(=O)N2CCCCC2)cc1N=NN(C)C

## Output
1: > 100 µM; 2: 34.4 µM; 3: > 100 µM; 4: > 100 µM; 5: > 100 µM; 6: > 100 µM; 7: > 50 µM; 8: > 100 µM

Answer for every listed entry: what is its TGI? The entries follow.
1. CC(C)COP(C)(=O)C(N)(C(F)(F)F)C(F)(F)F (stereo unspecified)
2. N#Cc1c(-c2ccccc2)cc(-c2cccs2)c(C#N)c1N
3. NC(=O)CCc1ccccc1Oc1nccc(-c2c(-c3ccc(F)cc3)ncn2C2CCNCC2)n1
4. CC(=O)SC(SC(C)=O)SC(C)=O

## Output
1: > 100 µM; 2: > 100 µM; 3: > 25 µM; 4: > 100 µM

Answer for every listed entry: what is its TGI? The entries follow.
1. O=C1Nc2ccccc2/C1=C\c1c(-c2ccccc2)nc2n1CCS2
2. Cc1ccc(SCC(CF)OC(C)n2cnc3c(Cl)nc(N)nc32)cc1 (stereo unspecified)

## Output
1: > 100 µM; 2: > 100 µM

## Input Item COc1ccc2[nH]c3c4c(cc(-c5ccccc5)c3c2c1)C(=O)N(c1ccccc1)C4=O with HOP-62 NSCLC - TGI?
## Output > 71.3 µM
